Sourced from patent US9192577B2

# assay-explanation: cytotoxicity (CC50) in mock-infected MT-4 cells (MTT)
# Assay type: cell-based
# conditions-used: human, mock-infected MT-4 cells, −log CC50, MTT
Decide using CC50 alone. Strictly below 10 µM: t. Equal to or above 10 µM: f.

[[record]]
compound = "Cc1cc(/C=C/C(=O)N(C)CCC#N)cc(C)c1Nc1ccnc(Nc2ccc(C#N)cc2)n1 [Compound 114]"
class_label = "t"

[[record]]
compound = "CC(=O)c1cccc(-c2cc(C)c(Nc3ccnc(Nc4ccc(C#N)cc4)n3)c(C)c2)c1 [Compound 34]"
class_label = "f"

[[record]]
compound = "Cc1cc(-c2ccco2)cc(C)c1Nc1ccnc(Nc2ccc(C#N)cc2)n1 [Compound 3]"
class_label = "t"

[[record]]
compound = "Cc1cc(CCC#N)cc(C)c1Nc1ccnc(Nc2ccc(C#N)cc2)n1 [Compound 24]"
class_label = "t"

[[record]]
compound = "Cc1cc(-c2ccc(C#N)o2)cc(C)c1Nc1ccnc(Nc2ccc(C#N)cc2)n1 [Compound 126]"
class_label = "f"

[[record]]
compound = "Cc1cc(/C=C/C(=O)N2CCOCC2)cc(C)c1Nc1ccnc(Nc2ccc(C#N)cc2)n1 [Compound 156]"
class_label = "t"

[[record]]
compound = "Cc1cc(/C=C/C(=O)N2CC=CC2)cc(C)c1Oc1ccnc(Nc2ccc(C#N)cc2)n1 [Compound 209]"
class_label = "f"

[[record]]
compound = "Cc1cc(/C=C/C(=O)N(C)C2CCN(C)CC2)cc(C)c1Oc1ccnc(Nc2ccc(C#N)cc2)n1 [Compound 210]"
class_label = "f"


---

# assay-explanation: cytotoxicity (CC50) in mock-infected MT-4 cells (MTT)
# Assay type: cell-based
# conditions-used: human, mock-infected MT-4 cells, −log CC50, MTT
Measured CC50, listed per entry for reference.
value-type: CC50 (µM)

[[record]]
molecule = "CCN(Cc1ccncc1)Cc1cc(C)c(Nc2ccnc(Nc3ccc(C#N)cc3)n2)c(C)c1 [Compound 79]"
prefix_operator = "="
measured = 5.01

[[record]]
molecule = "Cc1cc(-c2ccsc2)cc(C)c1Nc1ccnc(Nc2ccc(C#N)cc2)n1 [Compound 21]"
prefix_operator = "="
measured = 12.6

[[record]]
molecule = "Cc1cc(/C(Cl)=C\\C#N)cc(C)c1Nc1ccnc(Nc2ccc(C#N)cc2)n1 [Compound 124]"
prefix_operator = "="
measured = 20

[[record]]
molecule = "CCOCc1ccc(Oc2ccnc(Nc3ccc(C#N)cc3)n2)c(C)c1 [Compound 105]"
prefix_operator = ">"
measured = 100

[[record]]
molecule = "Cc1cc(/C=C(/C#N)C(=O)C(C)(C)C)cc(C)c1Nc1ccnc(Nc2ccc(C#N)cc2)n1 [Compound 106]"
prefix_operator = "="
measured = 6.31

[[record]]
molecule = "Cc1cc(Cn2ccnc2)cc(C)c1Nc1ccnc(Nc2ccc(C#N)cc2)n1 [Compound 70]"
prefix_operator = "="
measured = 15.8

[[record]]
molecule = "Cc1cc(/C=C(\\C#N)c2cccs2)cc(C)c1Nc1ccnc(Nc2ccc(C#N)cc2)n1 [Compound 49]"
prefix_operator = "="
measured = 15.8

[[record]]
molecule = "Cc1cc(CN2CCSC2)cc(C)c1Nc1ccnc(Nc2ccc(C#N)cc2)n1 [Compound 78]"
prefix_operator = "="
measured = 12.6


---

# Test system: mock-infected MT-4 cells
# assay-explanation: cytotoxicity (CC50) in mock-infected MT-4 cells (MTT)
# Type: cell-based
Form field: pCC50 (M) (one value per entry).
value-type: pCC50 (M)

[[record]]
compound = "Cc1cc(CN(C)CCC#N)cc(C)c1Nc1ccnc(Nc2ccc(C#N)cc2)n1"
unit_symbol = "M"
prefix_operator = "="
measured = 5.0

[[record]]
compound = "Cc1cc(CC(C#N)C#N)cc(C)c1Nc1ccnc(Nc2ccc(C#N)cc2)n1"
unit_symbol = "M"
prefix_operator = "="
measured = 6.4

[[record]]
compound = "Cc1cc(CC(C)C#N)ccc1Oc1ccnc(Nc2ccc(C#N)cc2)n1 (stereo not shown)"
unit_symbol = "M"
prefix_operator = "<"
measured = 4.0

[[record]]
compound = "CC(C#N)=Cc1cc(C)c(Nc2ccnc(Nc3ccc(C#N)cc3)n2)c(Cl)c1"
unit_symbol = "M"
prefix_operator = "="
measured = 5.7

[[record]]
compound = "Cc1cc(/C=C/C(=O)N(C)CCC#N)cc(C)c1Oc1ccnc(Nc2ccc(C#N)cc2)n1"
unit_symbol = "M"
prefix_operator = "="
measured = 5.1

[[record]]
compound = "CC(C#N)=Cc1cc(C)c(Oc2ccnc(Nc3ccc(C#N)cc3)n2)c(C)c1 [Compound 178]"
unit_symbol = "M"
prefix_operator = "="
measured = 5.7

[[record]]
compound = "Cc1cc(CC#N)cc(Cl)c1Nc1ccnc(Nc2ccc(C#N)cc2)n1"
unit_symbol = "M"
prefix_operator = "="
measured = 5.6

[[record]]
compound = "COc1cc(CCC#N)ccc1Nc1ccnc(Nc2ccc(C#N)cc2)n1"
unit_symbol = "M"
prefix_operator = "="
measured = 5

[[record]]
compound = "CC(C#N)=Cc1ccc(Oc2ccnc(Nc3ccc(C#N)cc3)n2)c(C)c1"
unit_symbol = "M"
prefix_operator = "<"
measured = 4.0

[[record]]
compound = "C/C(=C\\C#N)c1cc(C)c(Oc2ccnc(Nc3ccc(C#N)cc3)n2)c(C)c1"
unit_symbol = "M"
prefix_operator = "="
measured = 4.8

[[record]]
compound = "Cc1cc(CCC#N)ccc1Nc1ccnc(Nc2ccc(C#N)cc2)n1"
unit_symbol = "M"
prefix_operator = "<"
measured = 4.0

[[record]]
compound = "Cc1cc(CN(C)C=NC#N)cc(C)c1Oc1ccnc(Nc2ccc(C#N)cc2)n1"
unit_symbol = "M"
prefix_operator = "="
measured = 5.3

[[record]]
compound = "Cc1cc(/C=C/C(=O)N(C)C)cc(C)c1Oc1ccnc(Nc2ccc(C#N)cc2)n1"
unit_symbol = "M"
prefix_operator = "="
measured = 5

[[record]]
compound = "Cc1cc(/C=C/C#N)ccc1Nc1ccnc(Nc2ccc(C#N)cc2)n1"
unit_symbol = "M"
prefix_operator = "<"
measured = 4.0

[[record]]
compound = "Cc1cc(/C=C/C(=O)N(C)CC#N)cc(C)c1Oc1ccnc(Nc2ccc(C#N)cc2)n1"
unit_symbol = "M"
prefix_operator = "="
measured = 5

[[record]]
compound = "CC(=NO)c1cc(C)c(Nc2ccnc(Nc3ccc(C#N)cc3)n2)c(C)c1"
unit_symbol = "M"
prefix_operator = "="
measured = 5.0

[[record]]
compound = "Cc1cc(CC(C)C#N)cc(C)c1Nc1ccnc(Nc2ccc(C#N)cc2)n1 (stereo not shown)"
unit_symbol = "M"
prefix_operator = "="
measured = 6.3

[[record]]
compound = "Cc1cc(/C=C/C#N)ccc1Oc1ccnc(Nc2ccc(C#N)cc2)n1"
unit_symbol = "M"
prefix_operator = "<"
measured = 4.0

[[record]]
compound = "Cc1cc(/C=C\\Br)cc(C)c1Oc1ccnc(Nc2ccc(C#N)cc2)n1"
unit_symbol = "M"
prefix_operator = "<"
measured = 4.0

[[record]]
compound = "CC(C#N)=Cc1cc(C)c(Nc2ccnc(Nc3ccc(C#N)cc3)n2)c(C)c1 [Compound 151]"
unit_symbol = "M"
prefix_operator = "="
measured = 5.5

[[record]]
compound = "C/C(=C\\C#N)c1ccc(Oc2ccnc(Nc3ccc(C#N)cc3)n2)c(C)c1"
unit_symbol = "M"
prefix_operator = "<"
measured = 4.0

[[record]]
compound = "Cc1cc(/C=C/C#N)cc(-c2ccco2)c1Nc1ccnc(Nc2ccc(C#N)cc2)n1"
unit_symbol = "M"
prefix_operator = "="
measured = 5

[[record]]
compound = "Cc1cc(/C=C/C#N)cc(Br)c1Nc1ccnc(Nc2ccc(C#N)cc2)n1"
unit_symbol = "M"
prefix_operator = "="
measured = 5.7

[[record]]
compound = "CCN(C)C(=O)/C=C/c1cc(C)c(Oc2ccnc(Nc3ccc(C#N)cc3)n2)c(C)c1"
unit_symbol = "M"
prefix_operator = "="
measured = 5.5

[[record]]
compound = "CC(C#N)=Cc1cc(C)c(Oc2ccnc(Nc3ccc(C#N)cc3)n2)c(C)c1 [Compound 179]"
unit_symbol = "M"
prefix_operator = "<"
measured = 4.0

[[record]]
compound = "Cc1cc(C(C)CC#N)ccc1Oc1ccnc(Nc2ccc(C#N)cc2)n1 (stereo not shown)"
unit_symbol = "M"
prefix_operator = "<"
measured = 4.0

[[record]]
compound = "CCN(C)C(=O)/C=C/c1cc(C)c(Nc2ccnc(Nc3ccc(C#N)cc3)n2)c(C)c1"
unit_symbol = "M"
prefix_operator = "="
measured = 5.5

[[record]]
compound = "Cc1cc(CCC#N)ccc1Oc1ccnc(Nc2ccc(C#N)cc2)n1"
unit_symbol = "M"
prefix_operator = "<"
measured = 4.0

[[record]]
compound = "CC(C#N)=Cc1cc(C)c(Nc2ccnc(Nc3ccc(C#N)cc3)n2)c(C)c1 [Compound 152]"
unit_symbol = "M"
prefix_operator = "="
measured = 4.8

[[record]]
compound = "Cc1cc(/C=C/C#N)cc(Cl)c1Nc1ccnc(Nc2ccc(C#N)cc2)n1"
unit_symbol = "M"
prefix_operator = "="
measured = 4

[[record]]
compound = "CC(C#N)=Cc1ccc(Nc2ccnc(Nc3ccc(C#N)cc3)n2)c(C)c1"
unit_symbol = "M"
prefix_operator = "<"
measured = 4.0

[[record]]
compound = "Cc1cc(CN(C)CCC#N)cc(Br)c1Nc1ccnc(Nc2ccc(C#N)cc2)n1"
unit_symbol = "M"
prefix_operator = "="
measured = 5.3

[[record]]
compound = "CC(C#N)=Cc1cc(C)c(Nc2ccnc(Nc3ccc(C#N)cc3)n2)c(Br)c1"
unit_symbol = "M"
prefix_operator = "="
measured = 6.2

[[record]]
compound = "COc1cc(C=C(C)C#N)ccc1Nc1ccnc(Nc2ccc(C#N)cc2)n1"
unit_symbol = "M"
prefix_operator = "="
measured = 4

